- System: MS2 coat protein
- Experimental Details: apparent KD of MS2 coat protein; higher = weaker reporter binding
- Condition Label: Eterna round: R107; input ligand: theophylline 2 mM
Metric: apparent KD of MS2 coat protein (µM)

INSERT INTO assay_data (monomer_sequence, measured_result) VALUES
  ('GCGGAAUAAUCGGCCGCCACUAUGAGACAGGAAACUGUCACAUGAGGAUCACCCAUGUAUCCUCAUAGGACCGGGAUUAAAACGC [Melting point difference]', 0.1),
  ('AUGCCUAGUGGAAGGAGCGAGGGUCUUCUCAACAUGAGGAUCACCCAUGUUCUUUUAUACCCUCAGGUAGGUCGCCAUUGGGACA [Anenre]', 0.0257),
  ('AGCUCGCAUCCUCUAGCGUCAAAGACGCGUCGAGGACCGGUACGGCCGCCACUCGACUUGAGGAACACCCAAGUCCUAGCGAGCA [TrypAX 12 #SwitchBubble #AlternativeMS2 #MS2Late #CuTurnoff]', 0.306),
  ('AUGCAUAGCGGAAGGAGCGCAAUAGAAUGACAUGAGGAUCACCCAUGUGUGUGAUGUGGGUUGCAGGUAGGUCGCCGAGUGGCAU [#11 Exclusion - Arginine B]', 0.127),
  ('UCGUUUUAGUCGGCCGCCACUGUAUGCAUGUUUAACAUGAGGAUCACCCAUGUCCCGUACUAUUUCAGGACCGGGACGUAAUCGA [JR_SSTryptoB_Sub007]', 0.484),
  ('GGGAGGGAGGCGGCCGCCACUGAUUUUCAUAUAUAUAUAACAUGAGGAUCACCCAUGUAGAUAUGCAGGACCGGGCCUUUUUUUU [aaaI]', 0.0191),
  ('ACAUGAGGAUCACCCAUGUUGAACUACCAUCGAGGACCGGUACGGCCGCCACUCGCGUUCUCCUUAGCAUCAAGGUCCGCGAAAC [theeternabot_exclusion_MS2_Trp_A_1]', 0.0136),
  ('AAUAUUAACUGAAGGAGCGUGUUAUGUACAUGAGGAUCACCCAUGUAUAGGGUAAUACUAACACAGGUAGGUCGCAGAAUAAUUA [JR_SSArginiB_Sub010]', 0.022);
